Each entry below carries its recorded CC50.
- assayNotes: NOVARTIS: Cytotoxicity against human hepatocellular carcinoma cell line (Huh7)
- Assay type: toxicity, cell-based, Huh-7
- testConditions: Huh7 cells (hepatocellular carcinoma cell line)
propertyLabel: CC50

INSERT INTO results (compound, propertylabel, observedmeasurement) VALUES
  ('NN1C(=O)NC(=O)C1Nc1cccc([N+](=O)[O-])c1 (stereo unspecified)', 'CC50', '> 12.7 µM'),
  ('COc1cc(/C=C(\C#N)c2nc3ccccc3[nH]2)ccc1OCc1ccccc1F', 'CC50', '> 10 µM'),
  ('COc1ccc(OC)c(-c2ccc(O)c(CN3CCCCCC3)c2)c1', 'CC50', '> 10 µM'),
  ('O=C(Nc1ccc2oc(-c3ccc(I)cc3)nc2c1)c1ccc([N+](=O)[O-])o1', 'CC50', '33.8 µM'),
  ('CCOC(=O)C1CCN(C(=O)c2c(C)oc3c2C(=O)c2ccccc2C3=O)CC1', 'CC50', '22.2 µM'),
  ('COc1ccc(Nc2nc(NN=Cc3cc([N+](=O)[O-])ccc3OC)nc(Nc3ccc([N+](=O)[O-])cc3)n2)cc1', 'CC50', '> 100 µM'),
  ('Cc1nc2ccc(Cl)cc2c(O)c1I', 'CC50', '> 100 µM'),
  ('Cc1cccc(C2c3[nH]c4ccccc4c3CCN2C(=O)CCCN2CCCCC2=O)n1 (stereo unspecified)', 'CC50', '> 100 µM'),
  ('CC(=O)Nc1ccc(NC2=CC(=NS(=O)(=O)c3ccccc3)c3ccccc3C2=O)cc1', 'CC50', '6.88 µM'),
  ('COc1cc(C(=O)C=CNc2ccc(N(C)C)cc2)cc(OC)c1OC', 'CC50', '> 100 µM'),
  ('Cc1ccc(C)c(Nc2nc3c(s2)CCCC3)c1', 'CC50', '> 100 µM');

----------
Each entry below carries its recorded pEC50.
- Tested on: Plasmodium falciparum
- assayNotes: NOVARTIS: Inhibition of Plasmodium falciparum W2 (drug-resistant) proliferation in erythrocyte-based infection assay
- Format: functional, organism-based
- testConditions: Plasmodium falciparum, W2; read-out: EC50
pEC50: −log10 of the molar value.
propertyLabel: pEC50

INSERT INTO results (compound, propertylabel, limitqualifier, observedmeasurement) VALUES
  ('O=C1c2ccccc2C2=Nc3ccccc3SC(c3ccccc3F)C12 (configuration not stated)', 'pEC50', '=', 6.56),
  ('C=CCNC(=O)c1ccc2c(c1)N=C(CC(C)c1ccccc1)N(CC1CCCCC1)C2 (configuration not stated)', 'pEC50', '=', 5.82),
  ('CN(CCCNc1ccnc2cc(Cl)ccc12)S(=O)(=O)c1ccc2ccccc2c1', 'pEC50', '=', 6.70),
  ('COc1ccc(CCNc2nc(NCCCn3ccnc3)ncc2C(=O)NCC(C)C)cc1OC', 'pEC50', '<', 5.90),
  ('CCOC(=O)C1CCN(C(=O)c2cc(C(C)(C)C)nn2Cc2ccc(Cl)cc2Cl)CC1', 'pEC50', '=', 6.24),
  ('O=C(NCCc1nc(-c2cccnc2)n[nH]1)C12CC3CC(CC(C3)C1)C2', 'pEC50', '=', 6.24),
  ('Cc1cc(Nc2ccc(O)cc2)nc2cccc(O)c12', 'pEC50', '=', 6.39),
  ('CCN1CCN(c2nc3ccccn3c(=O)c2/C=C2\SC(=S)N(C(C)C)C2=O)CC1', 'pEC50', '=', 6.59),
  ('C[n+]1c2ccccc2nc2ccc(NCCc3cnc[nH]3)cc21', 'pEC50', '=', 6.39),
  ('CCC1CN2CCc3cc(OC)c(OC)cc3C2CC1CC1NCCc2cc(OC)c(OC)cc21 (configuration not stated)', 'pEC50', '=', 7.44),
  ('CCc1ccc(C(Nc2cc(C)ccn2)c2ccc3cccnc3c2O)cc1 (configuration not stated)', 'pEC50', '=', 6.79),
  ('C[n+]1ccccc1/C=C/C1=C(c2ccccc2)Oc2ccccc2O1', 'pEC50', '=', 6.60),
  ('Cc1c(Br)c([N+](=O)[O-])nn1CC(=O)NC(C)c1ccccc1 (configuration not stated)', 'pEC50', '<', 6.02),
  ('COc1ccc(C2(Cc3ccccc3)NC(=O)NC2=O)cc1 (configuration not stated)', 'pEC50', '<', 5.91),
  ('Brc1cc(Br)c2c(-c3ccccc3)n(-c3ccccc3)nc(-c3ccccc3)c1-2', 'pEC50', '<', 5.77),
  ('COc1ccc(C2CC(c3cccs3)=NN2C(=O)CSc2nnc(CNC(=O)c3cccs3)n2-c2cc(C)ccc2C)cc1 (configuration not stated)', 'pEC50', '=', 5.94),
  ('N#CN=C(N)c1sc(Nc2ccccc2)nc1N', 'pEC50', '=', 5.62),
  ('Cc1ccc2c(c1)c(-c1ccccc1)c(-c1ccccc1)n2CC(O)CN1CCN(Cc2ccccc2)CC1 (configuration not stated)', 'pEC50', '=', 7.07),
  ('CCCOc1ccc(Cc2c(C)nc3ccc(Br)cc3c2O)cc1', 'pEC50', '=', 5.96),
  ('Cc1oc2c(c1C(=O)NCc1cccnc1)C(=O)c1ccccc1C2=O', 'pEC50', '=', 5.76),
  ('Oc1ccc(-c2ccccc2)cc1CN1CCCCCC1', 'pEC50', '=', 7.27),
  ('CCCCn1c(=N)n(CC(O)c2ccc(Cl)c(Cl)c2)c2ccccc21 (configuration not stated)', 'pEC50', '=', 6.92),
  ('CC(C)N(C)Cc1cc(-c2nc3ccccc3s2)ccc1O', 'pEC50', '=', 6.29),
  ('COc1ccc(NC(=O)c2cc3cc(C4(O)CCN(Cc5cc6ccccc6[nH]5)CC4)ccc3o2)cc1', 'pEC50', '=', 6.19),
  ('O=C(Nc1ccc2c(c1)S(=O)(=O)c1cc(NC(=O)c3cccs3)ccc1-2)c1cccs1', 'pEC50', '<', 5.90),
  ('O=C(NCc1ccccc1)c1cnc(NCCC(c2ccccc2)c2ccccc2)nc1NC1CC1', 'pEC50', '>', 7.80),
  ('Nc1c(C(=O)Nc2ccc(Br)cc2)sc2nc3c(c(-c4cccs4)c12)CCC3', 'pEC50', '=', 6.11),
  ('CCOC(=O)c1cnc2c(OC)cccc2c1Nc1cc(C)c(Cl)cc1OC', 'pEC50', '<', 5.91),
  ('Cc1oc2c(c1C(=O)NC1CCS(=O)(=O)C1)C(=O)c1ccccc1C2=O (configuration not stated)', 'pEC50', '=', 6.90),
  ('CCOC(=O)c1cccc(NC(=O)CC2C(=O)N(c3ccc(F)cc3)C(=O)N2CCC(C)C)c1 (configuration not stated)', 'pEC50', '=', 7.00),
  ('CCOC(=O)c1sc(=S)n(-c2ccc(N(C)C)cc2)c1N', 'pEC50', '<', 5.90),
  ('CCCN1CCN(CCCNC(=O)c2ccc3c(c2)sc2nc(-c4ccc(OC)cc4)cn23)CC1', 'pEC50', '=', 5.36);

----------
- Tested on: Plasmodium falciparum
- assayNotes: NOVARTIS: Inhibition of Plasmodium falciparum 3D7 (drug-susceptible) proliferation in erythrocyte-based infection assay
- Format: functional, organism-based
- testConditions: Plasmodium falciparum, 3D7
pEC50: −log10 of the molar value.
Each entry below carries its recorded pEC50.
propertyLabel: pEC50

INSERT INTO measurements (compound, propertylabel, limitqualifier, observedmeasurement) VALUES
  ('COC(C(=NO)c1ccc(Cl)cc1)c1ccccc1 (stereo not drawn)', 'pEC50', '<', 6.04),
  ('COC(=O)[C@]1(C)CC[C@]2(C)CC[C@]3(C)C4=CC=C5C(=CC(=O)C(O)=C5C)[C@]4(C)CC[C@@]3(C)[C@@H]2C1', 'pEC50', '<', 5.90),
  ('CC(NC(=O)C(=O)N1CCCCC1)C(c1cccs1)N1CCOCC1 (stereo not drawn)', 'pEC50', '<', 5.77),
  ('CCOC(=O)C1CCN(C(=O)CN2C(=O)c3ccccc3C2c2c[nH]c3ccccc23)CC1 (stereo not drawn)', 'pEC50', '=', 6.28),
  ('Cc1nc2c(-c3ccccc3)c(C)nn2c(C)c1CC(=O)NCc1ccccn1', 'pEC50', '<', 4.90),
  ('Cc1ccc(S(=O)(=O)Nc2ccc(C(=O)NCCC(C)C)cc2)cc1', 'pEC50', '<', 6.08),
  ('O=C(Cc1cccs1)NC1CCN(CC(O)CN(Cc2ccccc2)S(=O)(=O)c2ccccc2)C1 (stereo not drawn)', 'pEC50', '=', 6.74),
  ('O=C(Nc1ccc2nc3n(c(=O)c2c1)CCCCC3)C(=O)N1CCN(c2ccccc2)CC1', 'pEC50', '=', 6.88),
  ('CCOc1cc(-c2nnc3[nH]c(=O)n(C)c(=O)c3n2)ccc1OC(C)C', 'pEC50', '=', 5.96),
  ('CSc1cccc(NC(=O)C2C3C=CC4(O3)C2C(=O)N(Cc2ccc(F)cc2)C4C(=O)NC2CCCC(C)C2C)c1 (stereo not drawn)', 'pEC50', '=', 5.84),
  ('CC(=O)Nc1ccc2c(c1)C(=O)N(C(C(=O)NCC(=O)O)C1CC1)[C@@H](CCC(=O)O)C(=O)N2 (stereo partly drawn)', 'pEC50', '=', 5.90),
  ('Cc1oc2c(c1C(=O)NC1CCS(=O)(=O)C1)C(=O)c1ccccc1C2=O (stereo not drawn)', 'pEC50', '=', 6.36),
  ('O[C@@H](c1cc(C(F)(F)F)nc2c(C(F)(F)F)cccc12)[C@H]1CCCCN1', 'pEC50', '=', 7.29),
  ('COc1ccc(-n2nc3c(c2NC(=O)/C=C\c2cc(OC)c(OC)c(OC)c2)CSC3)cc1', 'pEC50', '<', 6.12),
  ('CCOc1ccc2[nH]c(=O)c(CN(CCN(CC)CC)C(=S)NCCCN(CC)CC)cc2c1', 'pEC50', '=', 5.25),
  ('CN1CCN(c2nc(NN=Cc3cc(I)ccc3O)nc(Nc3ccc([N+](=O)[O-])cc3)n2)CC1', 'pEC50', '=', 6.42),
  ('COc1ccc(C2c3[nH]c4ccccc4c3C[C@@H]3C(=O)N(CCC(C)C)CC(=O)N23)cc1 (stereo partly drawn)', 'pEC50', '<', 5.90),
  ('COC(=O)C1=C(C)NC(=Cc2cc(C)n(-c3ccccc3C(F)(F)F)c2C)C1=O', 'pEC50', '=', 7.66),
  ('COc1cc(/C=C\C(=O)Nc2c3c(nn2-c2ccc(F)cc2)CSC3)cc(OC)c1OC', 'pEC50', '=', 6.21),
  ('COc1cc(NC(C)CCCN(Cc2ccc(F)cc2)C(=O)C(c2ccccc2)c2ccccc2)c2ncccc2c1 (stereo not drawn)', 'pEC50', '<', 5.96),
  ('O=c1c2c([nH]c3ccccc13)CCCCCCCCCC2', 'pEC50', '=', 6.56),
  ('O=S(=O)(NCCCCNc1ccnc2cc(Cl)ccc12)c1ccc2ccccc2c1', 'pEC50', '=', 6.57),
  ('CCCN1CCN(CCCNC(=O)c2ccc3c(c2)sc2nc(-c4ccc(OC)cc4)cn23)CC1', 'pEC50', '=', 5.61),
  ('CCCCN(CC)CCNC(=O)C1c2ccccc2C(=O)N(Cc2ccc(F)cc2)C1c1ccc(OC)cc1 (stereo not drawn)', 'pEC50', '=', 5.64),
  ('CN(C)CC(C)(C)CNCc1cc(-c2ccccc2)ccc1O', 'pEC50', '=', 7.18),
  ('O=C(NCCCCCCNC(=O)Nc1nc(-c2ccc(F)cc2)cs1)Nc1nc(-c2ccc(F)cc2)cs1', 'pEC50', '=', 5.22),
  ('COc1ccccc1/C=C/CN1CCN(c2ccccn2)CC1', 'pEC50', '<', 5.79),
  ('O=C(c1ccco1)N1CCN(c2ccc([N+](=O)[O-])c(NC3CC3)c2)CC1', 'pEC50', '=', 7.00);
